Where do the numbers come from? From PubChem BioAssay (NCI).

# System: SW-620 colon
# protocol: NCI-60 one-dose screen, 48 h
# assay.setup: 10 µM unless noted
Compounds without any hit were thinned out: in the full panel of roughly 83,000, 20% have a hit. Calls of active or inactive are those of the source. Rule for the calls: active = growth percent below 10; inactive = the rest.
Possible outcomes: Yes (active), No (inactive)

molecule | label.class
Cc1nc2ccc(Nc3nc(N4CCOCC4)nc(N4CCN(C)CC4)n3)cc2n1Cc1ccccc1 | No
N#Cc1c(N)c(C(=O)c2ccc3c(c2)OCCO3)n2c1CCCC2 | No
COc1ccc(Br)c2ccccc12 | No
COc1ccc2[nH]cc(/C=C3\C(=O)Nc4ccccc43)c2c1 | No
CC(=O)OC1Oc2cc(C)c(C)cc2-c2oc(=O)c(-c3ccc(F)cc3)cc21 (stereo not given) | No
Cc1cc(C)c2c(n1)sc1c(Nc3ccc(Cl)cc3Cl)ncnc12 | No
O=C(/C=C/c1cc([N+](=O)[O-])ccc1Cl)c1ccccc1 | Yes
CC[C@H](Nc1nc(N)nc(C2CC2)c1C#N)c1nc2cccc(NCc3ccc(C(=O)NO)cc3)c2c(=O)n1-c1ccccc1 | No
CCOc1ccc([C@@H]2[C@@H](Oc3ccccc3)C(=O)N2c2cc(OC)c(OC)c(OC)c2)cc1 | No
COc1ccccc1NC(=O)OCC12COCN1COC2 | No

====

# Tested on: K-562 leukemia
# protocol: NCI-60 one-dose screen, 48 h (100 = growth as untreated, 0 = no growth, -100 = all killed)
# assay.setup: 10 µM unless noted
This is part of a sample that, as a whole, favours compounds with a hit. Of some 83,000 tested, about 20% had one in any assay. Active and inactive are the calls of the source. How the source made its calls: active means growth percent below 10; inactive means the rest.
measured.endpoint: growth

compound | readout.value
CC(CN1CCN(C)CC1)CN1c2ccccc2Sc2ccc(C(F)(F)F)cc21 (stereo not given) | -31.2% (active)
COc1ccc(/C=c2\c(=O)n(-c3ccccc3)c3nn4c(=O)c(=O)[nH]nc4n23)cc1 | 122% (inactive)
FC1(F)CCN(Cc2c[nH]c3cc(Cl)ccc23)C[C@H]1CCc1ccccc1 | 31.4% (inactive)
Cc1ccc(NC(=O)c2[nH]c(SCCN(C)C)nc2-c2ccc(F)cc2)cc1C#Cc1cnc2cccnn12 | -37.3% (active)
Cc1nc([C@H]2CC[C@H]3[C@@H]4CCC5=CC(=O)CC[C@]5(C)[C@H]4CC[C@]23C)cs1 | 18% (inactive)

====

Listed below: growth values for each entry.
# Tested on: HT29 colon
# protocol: NCI-60 one-dose screen, 48 h (100 = growth as untreated, 0 = no growth, -100 = all killed)
# assay.setup: 10 µM unless noted
The panel holds about 83,000 compounds, 20% with a hit somewhere; the sample as a whole holds those more often.
measured.endpoint: growth (%)

compound | study.system | readout.value
CCN(CC)CCCC(C)Nc1cnc(C(=O)Nc2cccc3ccc(OC)nc23)cn1 (stereo not drawn) | HT29 colon | -47.2
Cc1c(C)c(C)c([N+](=O)[O-])c([N+](=O)[O-])c1C | HT29 colon | 102
COCCOCCOCc1n(Cc2ccc3ccccc3n2)c2ccccc2[n+]1Cc1ccc2ccccc2c1 | HT29 colon | -4.5

====

# System: HOP-92 NSCLC
# protocol: NCI-60 one-dose screen, 48 h (100 = growth as untreated, 0 = no growth, -100 = all killed)
# assay.setup: 10 µM unless noted
Compounds without any hit were thinned out: in the full panel of roughly 83,000, 20% have a hit. Active and inactive are the calls of the source. Rule for the calls: active = growth percent below 10; inactive = the rest.
Below: a set of entries, each annotated with reported growth.

molecule | study.system | growth
CCCCCCCCCCCC1=NC(C)(C)CN1C(C)(C)CO | HOP-92 NSCLC | 28.7% (inactive)
CCOc1ccc([C@@H]2[C@@H](Oc3ccccc3)C(=O)N2c2cc(OC)c(OC)c(OC)c2)cc1 | HOP-92 NSCLC | 63.3% (inactive)
CCOC(=O)c1ccc(N(CCC(=O)O)C(C)=O)cc1 | HOP-92 NSCLC | 96.2% (inactive)
Nc1nc(N)c2cc(CNc3ccc(Cl)c(Cl)c3)ccc2n1 | HOP-92 NSCLC | -5.15% (active)
Cc1ccc(O)c(Cc2ccccc2)c1 | HOP-92 NSCLC | 52.7% (inactive)
CCN(CC)CCCCCCCNc1cc(OC)cc2c(C)ccnc12 | HOP-92 NSCLC | 57.5% (inactive)
CC(C)N1CCN(c2ccncc2S(=O)(=O)N2CCN(C)CC2)CC1 | HOP-92 NSCLC | 108% (inactive)
O=C(NCCNC(=O)c1cc(S(=O)(=O)NCCc2ccccc2)c(O)c(O)c1O)c1cc(S(=O)(=O)NCCc2ccccc2)c(O)c(O)c1O | HOP-92 NSCLC | 73.9% (inactive)
Cc1ccccc1N1C(c2ccccc2)=NNC12C=CC(=O)c1c(O)cccc12 (stereo not given) | HOP-92 NSCLC | 137% (inactive)
Nc1nc2c(c3ncccc13)C(c1ccccc1)Cc1ncccc1-2 (stereo not given) | HOP-92 NSCLC | 96.1% (inactive)
COc1cc(C)c2c(=O)c3c(oc2c1)C(=O)c1c(O)c(OC)cc(O)c1C3=O | HOP-92 NSCLC | -32% (active)
CC1CN(CCCOC(=O)Nc2ccc(Cl)cc2)CCN1C(C)(C)C (stereo not given) | HOP-92 NSCLC | 133% (inactive)
C#CC[C@@H]1C[C@]2(C)[C@H]3CC[C@@H]4[C@H]5C(C(=C)C)CC[C@]5(C(=O)NCCN(CCN)CCN)CC[C@@]4(C)[C@]3(C)CC[C@H]2C(C)(C)[C@H]1OC(C)=O (stereo not given in full) | HOP-92 NSCLC | 66.3% (inactive)
CNC(=O)c1cc(Oc2ccc(NC(=O)c3[nH]c(SC)nc3-c3ccc(F)cc3)cc2)ccn1 | HOP-92 NSCLC | 70.6% (inactive)
COc1ccc(-c2nsc3c2NC(=O)CC3c2cccc(F)c2)cc1 (stereo not given) | HOP-92 NSCLC | 52.7% (inactive)

====

# Test system: SK-MEL-5 melanoma
# protocol: NCI-60 one-dose screen, 48 h
# assay.setup: 10 µM unless noted
This is part of a sample that, as a whole, favours compounds with a hit. Of some 83,000 tested, about 20% had one in any assay. Activity calls are given as the source filed them. Rule for the calls: active = growth percent below 10; inactive = the rest.
Possible outcomes: class 1 for active, class 0 for inactive

molecule | label.class
COc1ccc(-c2oc(=O)ccc2-c2cc(OC)c(OC)c(OC)c2)cc1F | class 0
Cc1[nH]nc2ccc3nc(-c4ccc5[nH]ncc5c4)c4c(c3c12)CCCC4 | class 0
CC(=O)Nc1nonc1-c1nc2ccccc2n1Cc1ccc(C(C)(C)C)cc1 | class 0
CCOc1ccc([C@@H]2[C@@H](Oc3ccccc3)C(=O)N2c2cc(OC)c(OC)c(OC)c2)cc1 | class 1
CCCCCCCCCCCCCC(=S)NCCCC[C@H](NC(=O)OCc1ccccc1)C(=O)Nc1ccccc1 | class 0
C=CC[C@]1(O)CC[C@H]2[C@@H]3CCc4cc(O)ccc4[C@H]3CC[C@@]21C | class 0
CC1=C(C(=O)Nc2ccc(F)cc2)C(c2ccccc2)C2=C(CC(C)(C)CC2=O)N1 (centres undefined) | class 0
COc1ccc2cc(-c3nc(C)c(C(C)=O)c(-c4ccc(C)cc4)n3)ccc2c1 | class 0
CCN(CC)CCCCCCCNc1cc(OC)cc2c(C)ccnc12 | class 0
CC(=O)c1c(C)nc(-c2cc(C)cc(Cl)c2)nc1-c1cccc(Oc2ccccc2)c1 | class 0
CC1(C)C(N(O)C(=O)Nc2ccc(Cl)cc2)N(c2ccc(Cl)cc2)C(=O)N1CC(=O)N/N=C/C=C/c1ccc([N+](=O)[O-])o1 (centres undefined) | class 1
NS(=O)(=O)c1ccc(N2N=C(c3ccc(Br)cc3)CC2c2cn(-c3ccccc3)nc2-c2ccc(Cl)cc2)cc1 (centres undefined) | class 0
CNC(=O)c1ccccc1Sc1ccc2c(/C=C/c3ccccn3)n[nH]c2c1 | class 0
COc1ccc(-c2cn(-c3cccc(C(=O)/C=C/c4ccc(O)c(OC)c4)c3)c(=O)[nH]2)cc1 | class 0
Clc1ccc2c(c1)-n1cccc1C(c1ccc3ccccc3c1)=NC2 | class 0
COC(=O)C1(C)COP(=O)(NC23CC4CC(CC(C4)C2)C3)OC1 (centres undefined) | class 0
OC(c1cc2cc(Cl)ccc2c2cc(C(F)(F)F)ccc12)C1CCCCN1 (centres undefined) | class 1
CCN(CC)C(Cl)=Nc1ccc(Cl)cc1 | class 0
Cc1cc(C)c2c(n1)sc1c(Nc3ccc(Cl)cc3Cl)ncnc12 | class 0
CCCCCCCCCCC(C(O)c1ccccc1)N1CCCCC1 (centres undefined) | class 1
COc1ccc(Sc2[nH]c(C=O)c3ccccc23)cc1 | class 0
Cc1ccc(C2CC(c3cccs3)=NN2c2ccc(S(N)(=O)=O)cc2)s1 (centres undefined) | class 0
O=C(CN1CCN(c2ccccc2)CC1)N1CCN(c2nnc(-c3ccc(Cl)cc3)c(-c3ccc(Cl)cc3)n2)CC1 | class 0
CS(=O)(=O)Nc1cc(-c2cc3ncc(C#N)c(Nc4ccc(Oc5ccccc5)c(Cl)c4)c3s2)cnc1Cl | class 0
Fc1ccc2c(CN3CCO[C@H](COc4cccc(Cl)c4)C3)c[nH]c2c1 | class 0
O=c1cc(-c2ccc3c(c2)OCCO3)oc2cc(Cl)ccc12 | class 0
CNC(=O)c1cc(Oc2ccc(NC(=O)c3[nH]c(SC)nc3-c3ccc(F)cc3)cc2)ccn1 | class 0
COc1cc(C(=O)/C=C/c2cn(-c3ccccc3)nc2-c2cccc(Nc3ccnc4cc(Cl)ccc34)c2)cc(OC)c1OC | class 0
C=CCn1c(SCC(=O)Nc2ccc(/C(C)=N\O)cc2)nnc1-c1cc(-c2ccc(Cl)cc2)nc2ccccc12 | class 0
Clc1ccc2c(c1)-c1ccccc1C1=NCCN12 | class 0
CC(C)(C)CC(C)(C)NCc1cc(C(C)(C)C)cc(CNC(C)(C)CC(C)(C)C)c1O | class 0
COc1ccc(/C(=C\c2ccc3c(c2)OCO3)C(=O)Nc2nc3ccccc3s2)cc1 | class 0
COc1ccccc1/C=N\NC(=S)Nc1ccc(F)cc1 | class 0
CO[C@@]12[C@@H]3NC3CN1C1=C(C(=O)C(N)=C(C)C1=O)[C@@H]2COC(N)=O (some centres undefined) | class 1
CNC(=O)c1cc(Oc2ccc(NC(=O)c3nc(S(C)(=O)=O)sc3-c3ccc(F)cc3)cc2)ccn1 | class 0
Cc1ccc(Nc2nc(NCCO)c3ccccc3n2)cc1C | class 1
C[C@@H](C[C@H](CC1CC1)c1ccccc1)c1ccc2ccccc2c1 | class 0
Cc1ccc(N2C3c4ccccc4N(S(=O)(=O)c4ccc(C)cc4)C2c2ccccc2N3S(=O)(=O)c2ccc(C)cc2)cc1 | class 0
c1ccc(C(CC2=NCCCN2)c2ccccc2)cc1 | class 0
